Overview of recorded koff for various binders
Molecular target: T1, Source 1 VEGF-D, mature dimeric recombinant human VEGF-D (CSIRO) (human, UniProt O43915 89-205)
T1 construct: Whole entry named; also called Source 1 VEGF-D dimer; VEGF-D dimer
T1 sequence: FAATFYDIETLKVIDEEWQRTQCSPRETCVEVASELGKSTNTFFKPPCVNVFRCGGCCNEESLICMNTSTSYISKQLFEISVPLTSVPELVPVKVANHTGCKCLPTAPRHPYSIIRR
Experiment: SPR Protocol B: VEGF-D dimer amine-coupled, IgG as analyte
Description: Protocol B: In the second assay format, Protocol B, the orientation of the IgGs and the VEGF-D antigen was reversed relative to Protocol A. The Source 1 VEGF-D dimer was immobilized directly on the chip surface by amine coupling and the murine anti-VEGF-D monoclonal antibody, Ig-1A or IgG variants flowed over this surface as analytes at concentrations of 4 nM, 1.33 nM, and 0.44 nM. […]
Expressed in s⁻¹, but write only the number.

Consider the worked cases shown below.
humanized IgG antibody derived from clone HW78 (antibody, V domains shown, IgG) VH: QVQLVQSGAEVKQPGASVKVSCKARGYTFTGYNMYWVRQAPGQGLEWMGYIDPYNGDTTYNQKFKGRVTMTTDTSTGTAYMKLRSLRSDDTAVYYCARTSYYGGMDYWGRGTLVTVAS VL: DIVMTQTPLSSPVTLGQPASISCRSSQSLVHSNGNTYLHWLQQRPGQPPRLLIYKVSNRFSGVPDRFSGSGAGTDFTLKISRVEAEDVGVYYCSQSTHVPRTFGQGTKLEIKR : 0.0018
humanized IgG antibody derived from clone HU75 (antibody, V domains shown, IgG) VH: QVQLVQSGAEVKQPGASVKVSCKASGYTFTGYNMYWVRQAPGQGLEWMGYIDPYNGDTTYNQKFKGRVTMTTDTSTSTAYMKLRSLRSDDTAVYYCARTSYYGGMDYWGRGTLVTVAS VL: DIVMTQTPLSGPVTLGQPASISCRSSQSLVHSNGNTYLHWLQQRPGQPPRLLIYKVSNRFSGVPDRFSGSGAGTDFTLKISRVEAEDVGVYYCSQSTHVPRTFGRGTKLEIKR : 0.0019
humanized IgG antibody derived from clone HH69 (antibody, V domains shown, IgG) VH: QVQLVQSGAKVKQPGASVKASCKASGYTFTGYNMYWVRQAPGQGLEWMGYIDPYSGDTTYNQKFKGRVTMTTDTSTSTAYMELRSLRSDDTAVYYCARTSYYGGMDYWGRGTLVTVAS VL: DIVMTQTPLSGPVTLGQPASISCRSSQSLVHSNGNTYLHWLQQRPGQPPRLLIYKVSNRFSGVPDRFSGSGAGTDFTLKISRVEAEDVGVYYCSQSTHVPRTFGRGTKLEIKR : 0.001
humanized IgG antibody derived from clone HH41 (antibody, V domains shown, IgG; also called HH41#1; HH41#2) VH: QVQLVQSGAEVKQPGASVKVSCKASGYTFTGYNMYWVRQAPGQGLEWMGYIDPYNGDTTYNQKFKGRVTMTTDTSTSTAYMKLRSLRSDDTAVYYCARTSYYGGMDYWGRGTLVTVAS VL: DIVMTQTPLSSPVTLGQPASISCRSSQSLVHGNGNTYLHWLQQRPGQPPRLLIYKVSNRFSGVPDRFSGSGAGTDFTLKISRVEAEDVGVYYCSQSTHVPRTFGQGTKLEIKR : 0.0017
Ig-1A, humanized IgG reformatted from scFv 1A (antibody, V domains shown, IgG made in mammalian cells; also called humanized Ig-1A) VH: QVQLVQSGAEVKQPGASVKVSCKASGYTFTGYNMYWVRQAPGQGLEWMGYIDPYNGDTTYNQKFKGRVTMTTDTSTSTAYMELRSLRSDDTAVYYCARTSYYGGMDYWGRGTLVTVAS VL: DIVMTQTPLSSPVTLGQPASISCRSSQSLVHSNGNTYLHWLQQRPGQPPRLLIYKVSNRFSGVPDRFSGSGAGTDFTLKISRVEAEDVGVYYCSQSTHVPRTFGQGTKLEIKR : 0.0013

Here is the next item to consider.
Query humanized IgG antibody derived from clone DI26 (antibody, V domains shown, IgG) VH: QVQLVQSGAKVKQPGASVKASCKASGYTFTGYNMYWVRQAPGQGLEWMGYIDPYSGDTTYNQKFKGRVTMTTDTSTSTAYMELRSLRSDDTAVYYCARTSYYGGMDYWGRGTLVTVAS VL: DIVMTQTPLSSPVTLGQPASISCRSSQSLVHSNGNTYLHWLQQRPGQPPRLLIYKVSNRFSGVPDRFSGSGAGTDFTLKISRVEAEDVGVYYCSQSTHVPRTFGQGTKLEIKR yields koff of 0.0012
